Hey, just so you know, these numbers are from PubChem BioAssay (Tox21).

# ASSAY_NAME: qHTS assay for identifying genotoxic compounds that show differential cytotoxicity against isogenic chicken DT40 cell lines with known DNA damage response pathways - wild type cell line (AID 743012); further: nearly all actives have a fitted effect of over 60% in size; further: potency means the concentration at half of the fitted maximal effect
# ASSAY_SETUP: DT40 wild type chicken cells viability, CellTiter-Glo, 40 h; series mostly up to 68.4 µM
Inconclusive results are not listed. Calls of active or inactive are those of the source. The call rests on the fitted dose curve; in most records, active means well fitted cell-killing curve with a large enough effect in the repeat runs; inconclusive means weak or mixed curves, or effect the other way; inactive means no such curve, though single readings can be large or run the other way.
READOUT_LABEL: Potency

Recorded Potency, per entry:
COMPOUND	Potency
c1ccc2c(c1)-c1cccc3cccc-2c13	inactive
Oc1cccc(Cl)c1	inactive
Cc1ncc(C[n+]2csc(CCO)c2C)c(N)n1	inactive
CON(C)C(=O)Nc1ccc(Cl)cc1	inactive
CC(C)(c1ccccc1)c1cc(-n2nc3ccccc3n2)c(O)c(C(C)(C)c2ccccc2)c1	inactive

Entry O=[N+]([O-])c1cc(Cl)c(Cl)cc1Cl — recorded Potency = inactive

Entry CCCCC1C(=O)NC(=O)N(C2CCCCC2)C1=O (stereo not given) — recorded Potency = inactive

Entry SCc1ccccc1 — recorded Potency = inactive

Entry CCCBr — recorded Potency = inactive

Entry CC(C)(C)NCC(O)c1ccccc1Cl (stereo not given) — recorded Potency = inactive

Entry COc1ccc(C(=O)c2c(C)n(CCN3CCOCC3)c3ccccc23)cc1 — recorded Potency = 26.6 µM (active)

Entry CCOC(=O)c1cn2nc(OP(=S)(OCC)OCC)cc2nc1C — recorded Potency = 27.3 µM (active)

----------
# TARGET_OR_SYSTEM: Estrogen receptor beta (Homo sapiens) (UniProt Q92731)
# Sequence (Q92731 whole entry, looked up): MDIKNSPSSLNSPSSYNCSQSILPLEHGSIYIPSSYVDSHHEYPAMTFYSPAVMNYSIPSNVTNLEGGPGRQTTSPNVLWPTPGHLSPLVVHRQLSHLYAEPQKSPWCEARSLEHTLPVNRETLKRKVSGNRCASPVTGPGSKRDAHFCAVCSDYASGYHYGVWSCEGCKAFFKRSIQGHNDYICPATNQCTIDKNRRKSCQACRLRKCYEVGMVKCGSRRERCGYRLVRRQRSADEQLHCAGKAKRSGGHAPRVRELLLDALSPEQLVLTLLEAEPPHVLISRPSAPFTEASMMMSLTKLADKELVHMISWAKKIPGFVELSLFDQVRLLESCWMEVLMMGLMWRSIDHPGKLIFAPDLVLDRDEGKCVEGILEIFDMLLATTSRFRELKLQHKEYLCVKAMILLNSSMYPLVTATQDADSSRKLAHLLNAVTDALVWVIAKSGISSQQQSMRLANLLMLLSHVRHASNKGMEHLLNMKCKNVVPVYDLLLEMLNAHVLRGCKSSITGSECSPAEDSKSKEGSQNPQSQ
# ASSAY_NAME: qHTS assay to identify small molecule antagonists of the estrogen receptor beta (ER-beta) signaling pathway (AID 1259378)
# ASSAY_SETUP: ER-beta-UAS-bla HEK293T, beta-lactamase FRET ratio, 16 h; series mostly up to 92.4 µM
Inconclusive results are not listed. Calls of active or inactive are those of the source. The call rests on the fitted dose curve; in most records, active means well fitted inhibition curve with a large enough effect in the signal ratio in the repeat runs (not every such curve was filed as active); inconclusive means weak or mixed curves, or effect the other way; inactive means no such curve, though single readings can be large or run the other way; the % refers to the signal ratio.
Choose one outcome from this list and give only that: yes (1) = active, no (0) = inactive

COMPOUND	CLASS
COP(=O)(OC)OC(Br)C(Cl)(Cl)Br (configuration not stated)	no (0)
c1ccc2c(c1)-c1cccc3cccc-2c13	no (0)
CN1C[C@H](C(=O)N[C@]2(C)O[C@@]3(O)[C@@H]4CCCN4C(=O)[C@H](Cc4ccccc4)N3C2=O)C=C2c3cccc4[nH]cc(c34)C[C@H]21	yes (1)
Nc1cc(Cl)cc(C(=O)O)c1Cl	no (0)

Recorded test call requested for CCCCC(CC)COC(=O)c1c(Br)c(Br)c(Br)c(Br)c1C(=O)OCC(CC)CCCC (configuration not stated)
no (0)

Recorded test call requested for O=S(=O)(c1ccccc1)c1ccccc1
no (0)

Recorded test call requested for C[CH2][Hg][S]c1ccccc1C(=O)O
yes (1)

----------
# ASSAY_NAME: qHTS assay for small molecules that induce genotoxicity in human embryonic kidney cells expressing luciferase-tagged ATAD5 - cell viability (AID 651634); further: on the % scale 0 is the no-effect control and ±100 the full control effect; nearly all actives have a fitted effect of over 25% in size
# ASSAY_SETUP: HEK293T ATAD5-luc cells viability, CellTiter-Fluor, 15.5 h; series mostly up to 83.3 µM
# Text: National Center for Advancing Translational Sciences [NCATS] NIH Chemical Genomics Center [NCGC] U.S. Environmental Protection Agency [EPA] National Institutes of Environmental Health Sciences [NIEHS] National Toxicology Program [NTP] U.S. Food and Drug Administration [FDA] Enhanced Level of Genome Instability Gene 1 (ELG1; human ATAD5) protein levels increase in response to various types of DNA damage. […]
Records with an inconclusive call do not appear. Activity calls are given as the source filed them. Calls follow the shape of the full dose curve.
Choose one outcome from this list and give only that: true for active, false for inactive

Recorded test call requested for SCc1ccccc1
false
